target: human Serotonin, 5-Hydroxytryptamine Receptor 6 (5HT6), HTR6 (gene 3362) (UniProt P50406); experiment: NVS_GPCR_h5HT6: NovaScreen (NVS) G Protein-Coupled Receptor Assay for human Serotonin, 5-Hydroxytryptamine Receptor 6 (5HT6) (AID 2283253)
Sequence (P50406 whole entry, looked up): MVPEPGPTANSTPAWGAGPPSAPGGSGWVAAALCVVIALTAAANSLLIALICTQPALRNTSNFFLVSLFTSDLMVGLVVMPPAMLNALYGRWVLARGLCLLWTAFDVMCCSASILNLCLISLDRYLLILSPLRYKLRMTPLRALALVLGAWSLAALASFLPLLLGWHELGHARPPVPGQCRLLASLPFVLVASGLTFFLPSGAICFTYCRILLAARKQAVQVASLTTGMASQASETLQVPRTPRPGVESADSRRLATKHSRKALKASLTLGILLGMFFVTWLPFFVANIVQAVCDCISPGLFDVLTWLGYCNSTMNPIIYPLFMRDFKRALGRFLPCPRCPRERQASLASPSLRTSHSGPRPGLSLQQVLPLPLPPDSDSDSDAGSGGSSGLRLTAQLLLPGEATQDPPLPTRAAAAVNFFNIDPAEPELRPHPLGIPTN
Inconclusive results are not listed. Calls of active or inactive are those of the source. The calls were made as follows: active = hit-call score of the fitted dose curve at least 0.9, where 1 is the maximum; inconclusive = response in the unintended direction; inactive = score below 0.9.
Property Measured: AC50

query: Could you share which AC50 value was measured for "CCN(CC)C(=O)c1cc(S(=O)(=O)Cc2ccccc2)c(N2CCC(c3ccccc3)CC2)cc1N(CC)CCN(C)C" ?
result: 0.971 µM (active)

query: Could you share which AC50 value was measured for "CN(C)c1ccc(C(=C2C=CC(=[N+](C)C)C=C2)c2ccc(N(C)C)cc2)cc1" ?
result: 13.9 µM (active)

query: Could you share which AC50 value was measured for "CCOC(=O)O[C@H](C)OC(=O)c1ccc2c(c1)cc(C(=O)NC1CCN(C(C)C)CC1)n2Cc1cc(-c2ccc(Cl)s2)on1" ?
result: 7.12 µM (active)

query: Could you share which AC50 value was measured for "NCc1cccc(C2CCN(C(=O)c3ccc(C#Cc4ccccc4F)o3)CC2)c1" ?
result: 8.69 µM (active)

query: Could you share which AC50 value was measured for "C[C@]12CC[C@@H]3c4ccc(O)cc4CC[C@H]3[C@@H]1CC[C@H]2O" ?
result: 25 µM (active)

query: Could you share which AC50 value was measured for "CN(C)C(=O)C1(N2CCCCC2)CCN(CC[C@@]2(c3ccc(Cl)c(Cl)c3)CN(C(=O)c3ccccc3)CCO2)CC1" ?
result: 23.6 µM (active)

query: Could you share which AC50 value was measured for "CN(C[C@@H](CC[N+]12CCC(C3CCCCC3)(CC1)CC2)c1ccc(Cl)c(Cl)c1)C(=O)c1cc(C(F)(F)F)cc(C(F)(F)F)c1" ?
result: 10.5 µM (active)

query: Could you share which AC50 value was measured for "Cc1cc2c(cc1C(F)(F)F)N(C(=O)Nc1ccc(Oc3cccnc3C)nc1)CC2" ?
result: 2.91 µM (active)
